The values you see were collected from patent US20210269525A1.

molecular target: T1, human CD3e (T-cell surface glycoprotein CD3 epsilon chain) (human, UniProt P07766 23-207); assay: flow cytometry, human PBMC, antibody 0.01 ug/mL, anti-human IgG Fc-Alexa Fluor647 (1:500), anti-hTcRβ-PerCP (1:30)
T1 construct: Target of the anti-hCD3e antibodies on human PBMC, Jurkat cells and cells expressing human CD3e; on T cells it is part of the CD3/TCR complex; also called hCD3e; CD3e on human PBMC
MEASUREMENT_NAME: upper left quadrant, percent of cells AF647+ / hTcRβ-PerCP- (%)
# number only, unit % dropped from output

Field: example entries. Status: answers known.
{"columns": ["BINDER", "VALUE_MEASURED"],
 "data": [
  ["10A4-H1K1-IgG1-LALA (antibody, V domains shown, Humanized; human IgG1 with LALA mutations; also called H1K1 (humanized 10A4)) VH: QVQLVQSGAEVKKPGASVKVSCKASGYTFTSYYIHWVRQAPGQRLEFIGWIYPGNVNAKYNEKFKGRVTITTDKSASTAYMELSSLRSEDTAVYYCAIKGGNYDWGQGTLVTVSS VL: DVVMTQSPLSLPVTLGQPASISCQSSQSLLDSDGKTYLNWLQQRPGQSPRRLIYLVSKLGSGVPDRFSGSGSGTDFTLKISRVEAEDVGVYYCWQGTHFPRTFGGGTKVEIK", 2.69],
  ["10A4-H3K2-IgG1-LALA (antibody, V domains shown, Humanized; human IgG1 with LALA mutations; also called H3K2 (humanized 10A4)) VH: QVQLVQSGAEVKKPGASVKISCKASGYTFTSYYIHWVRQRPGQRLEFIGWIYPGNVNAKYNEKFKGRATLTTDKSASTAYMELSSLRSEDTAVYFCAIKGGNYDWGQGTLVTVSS VL: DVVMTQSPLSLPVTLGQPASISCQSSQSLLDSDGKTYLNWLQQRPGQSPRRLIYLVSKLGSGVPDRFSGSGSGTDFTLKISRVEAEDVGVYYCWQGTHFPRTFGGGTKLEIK", 2.75],
  ["10A4-H2K2-IgG1-LALA (antibody, V domains shown, Humanized; human IgG1 with LALA mutations; also called H2K2 (humanized 10A4)) VH: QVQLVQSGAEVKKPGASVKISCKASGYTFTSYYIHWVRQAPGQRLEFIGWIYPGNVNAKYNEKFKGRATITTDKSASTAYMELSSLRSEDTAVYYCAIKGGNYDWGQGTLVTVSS VL: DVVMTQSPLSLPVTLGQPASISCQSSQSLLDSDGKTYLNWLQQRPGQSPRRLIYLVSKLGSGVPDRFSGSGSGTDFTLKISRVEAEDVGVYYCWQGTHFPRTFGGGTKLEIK", 2.42],
  ["10A4-H3K1-IgG1-LALA (antibody, V domains shown, Humanized; human IgG1 with LALA mutations; also called H3K1 (humanized 10A4)) VH: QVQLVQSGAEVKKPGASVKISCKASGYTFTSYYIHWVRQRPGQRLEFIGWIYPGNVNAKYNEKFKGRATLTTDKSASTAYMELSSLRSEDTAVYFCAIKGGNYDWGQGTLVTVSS VL: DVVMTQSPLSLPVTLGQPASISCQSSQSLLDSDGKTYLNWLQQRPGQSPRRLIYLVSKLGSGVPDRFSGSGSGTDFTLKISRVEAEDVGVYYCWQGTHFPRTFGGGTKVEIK", 2.62]
]}

Attention now shifts to the item below.
Supply upper left quadrant, percent of cells AF647+ / hTcRβ-PerCP- value. Item: 10A4-H2K1-IgG1-LALA (antibody, V domains shown, Humanized; human IgG1 with LALA mutations; also called H2K1 (humanized 10A4)) VH: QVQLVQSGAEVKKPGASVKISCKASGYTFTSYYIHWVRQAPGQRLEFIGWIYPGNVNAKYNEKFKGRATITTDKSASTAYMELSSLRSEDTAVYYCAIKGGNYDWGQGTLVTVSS VL: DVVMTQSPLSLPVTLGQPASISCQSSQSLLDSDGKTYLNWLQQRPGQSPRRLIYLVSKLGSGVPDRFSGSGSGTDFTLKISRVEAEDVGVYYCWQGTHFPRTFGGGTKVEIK
2.67
